Measured values drawn from PubChem BioAssay for this set.

assay: endothelial E-selectin expression blockers – imaging, HUVEC, immunofluorescence, MLSMR starter and 10KST1 sets, primary screen (AID 487); conditions: HUVEC TNFalpha-induced E-selectin immunofluorescence imaging, at 2 µM; measured here: cell number, toxicity;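 further: 100% = median nuclei count of all wells on the same plate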
Could you please report measured nuclei count for the items listed next?
Give bare numbers, in %.

Consider the worked cases shown below.
Compound	Readout Units	nuclei count
O=C(NCCc1ccccc1)C1CCN(S(=O)(=O)N2CCC3(CC2)OCCO3)CC1	%	104
Cc1ccc(CCNC(=O)Cn2cccc2)cc1	%	103
CCCCOc1ccc(-c2nnn(CC(=O)Nc3ncc(CC(=O)OCC)s3)n2)cc1	%	79.4
CN(C)C(=O)CN(c1ccc(F)c(Cl)c1)S(C)(=O)=O	%	109
NC(=O)SCC(=O)Nc1cccc(Cl)c1	%	132

For the 6 compounds below, give their nuclei count values.
1. COc1ccc(Cc2nc3ccc(S(N)(=O)=O)cc3[nH]2)cc1OC
2. CCNc1nc(NC(C)C)nc(N(C#N)CCOc2ccc(Cl)cc2Cl)n1
3. CCOC(=O)c1nnn(-c2nonc2NC(C)=O)c1C
4. Cc1ccc2cc(CN(CC(C)C)C(=O)C3CCCO3)c(=O)[nH]c2c1 (stereo unspecified)
5. CCCCC(c1nnnn1CS(=O)(=O)c1ccc(C)cc1)N1CCN(c2ccccc2)CC1 (stereo unspecified)
6. N[C@@H](Cc1cc(I)c(Oc2ccc(O)c(I)c2)c(I)c1)C(=O)O

1: 59.2; 2: 96.3; 3: 93.3; 4: 147; 5: 102; 6: 107

* * *

Please go through the items and note down their inhibition.
test: inhibitors of TNFa-induced NFkB p65 translocation, primary screen, imaging, HUVEC, MLSMR starter and 10KST1 sets (AID 438); settings: HUVEC TNFa-induced p65 nuclear translocation; at 2 µM, stronger effect = higher value, 0% TNFa-plus-vehicle, 100% no-TNFa wells;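 further: compound added about 3h40 before a 20 min TNFalpha stimulation; signal is the nuclear over cytoplasmic p65 intensity ratio per well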
Numbers only, in %.

Compound	Readout Units	inhibition
CC(C)CCNC(=O)NC(=O)CN1C(=O)NC2(CCCCC2)C1=O	%	-14.9

For every item in the list below, what is its measured inhibition?
1. COc1ccc(OC(C)C(=O)N2CCN(c3ccccn3)CC2)cc1 (stereo not given)
2. O=C(Nc1ccc2c(c1)OCO2)C1CCCN1C(=O)Nc1ccccc1F (stereo not given)
3. O=c1[nH]c2ccc(S(=O)(=O)N3CCN(C4CCCCC4)CC3)cc2[nH]c1=O
4. CC(C)[C@H](NC(=O)OC(C)(C)C)c1nnc(S(=O)(=O)Cc2c(F)cccc2Cl)o1

1: 7.5; 2: 9; 3: -7.8; 4: 10.7

* * *

assay: reduction of polyQ htt aggregates in cells – imaging, exon1htt(103Q)mCFP cells, high-content imaging, primary screen (AID 483); conditions: exon1htt(103Q)mCFP cell line, aggregate imaging, at 2 µM; measured here: cell count, toxicity;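 further: compound exposure lasted 3 days before fixation; percent of the per-plate median nuclei count of sample wells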
Could you please report measured nuclei count for the items listed next?
Answers are plain numbers, in %.

CC(C)(C)Nc1nc(OCC(F)(F)F)nc(OCC(F)(F)F)n1 103
Cc1cccc(-c2noc(CCC(=O)Nc3ccccc3)n2)c1 92.6
CCc1c(C)nc(N2CCN(Cc3ccccc3)CC2)[nH]c1=O 120
O=C(c1ccc(Cl)cc1)C1CCN(C(=O)NC2CCCCC2)CC1 86.5
O=C(c1ccc(NS(=O)(=O)c2cccs2)cc1)N1CCCCC1 74.9

API: the following record is the query input.
May I ask what nuclei count has been recorded for Cc1cc(S(=O)(=O)n2cnc3ccccc32)c(C)cc1Cl ?
78

* * *

assay: TLR3 IRF3 reporter activation blockers – cell-based, poly I:C stimulus, luciferase, 10K MLSCN set, primary screen (AID 602277); conditions: HEK293-TLR3 RL24 IRF3 luciferase reporter, at 10 µM, stronger effect = higher value
The source made the active and inactive calls.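 The calls were made as follows: active = inhibition of the reporter signal at or above 50%; inactive = inhibition below 50%.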
Please provide measured inhibition for the entries that follow.

Previously resolved entries follow.
Compound	inhibition
CC(=O)O[C@@]12CO[C@@H]1C[C@H](O)[C@@]1(C)C(=O)[C@H](O)C3=C(C)[C@@H](OC(=O)[C@H](O)[C@@H](NC(=O)OC(C)(C)C)c4ccccc4)C[C@](O)([C@@H](OC(=O)c4ccccc4)[C@H]21)C3(C)C	38.9% (inactive)
CCc1ccc2oc(-c3cc(N)ccc3Cl)nc2c1	-60.1% (inactive)
CS(=O)(=O)c1ncc(Cl)c(C(=O)Nc2ccc(N3CCOCC3)cc2)n1	62.8% (active)
Cn1c2ccccc2c2c(C(=O)NCCCN3CCCC3=O)cn(C3CCCCC3)c(=O)c21	15.9% (inactive)
O=C(COC(=O)C1(c2ccccc2F)CCCC1)NC1CCS(=O)(=O)C1 (stereo unspecified)	9.43% (inactive)
COCCn1c(N)c(C(=O)Nc2sc3c(c2C(=O)OC)CCCC3)c2nc3ccccc3nc21	9.11% (inactive)
Cc1ccc(F)cc1NC(=O)c1cccc2nccnc12	-19.2% (inactive)
O=C(NCc1cccnc1)c1ccccc1Br	20.8% (inactive)

For each of the compounds below, note its inhibition.
1. Cc1ccc(-c2cc(C(F)(F)F)n3ncc(C(=O)O)c3n2)cc1
2. COc1ccc(C2C3=C(CC(C)(C)CC3=O)Oc3ncn4nc(-c5cccnc5)nc4c32)cc1 (stereo unspecified)
3. O=C(O)CCc1ccc(-c2cccs2)n1NC(=O)c1ccco1
4. CC(=O)c1cccc(NC(=O)N2CCCC2C(=O)NCc2ccc(C)cc2)c1 (stereo unspecified)

1. 21.8% (inactive)
2. 17.2% (inactive)
3. 17.9% (inactive)
4. 23.1% (inactive)

Answer for every listed entry: what is its inhibition? The entries follow.
1. Cc1cc(NC(=O)c2ccc3nc(-c4ccccc4)c(-c4ccccc4)nc3c2)no1
2. CCCCCc1c(O)c2ccccc2[nH]c1=O
3. CCSc1nnc(NC(=O)c2cc(C)oc2C)s1

-16.7% (inactive)
13.8% (inactive)
-83.6% (inactive)

I have 2 compounds here; please give me inhibition for each one.
1. O=C(O)CC1CCCC(c2ccccc2)C1=O (stereo unspecified)
2. CCC(c1nnnn1CCOC)N(Cc1ccc(C)cc1)Cc1cc2cc(OC)ccc2[nH]c1=O (stereo unspecified)

["11.2% (inactive)", "27.8% (inactive)"]

Parameter requested: inhibition. Apply to each item below.
1. O=C(CCn1nc(-c2ccc(Cl)cc2)ccc1=O)N1CCN(c2ccccn2)CC1
2. O=C1CC(N2CCC(C(=O)N3CCCCC3)CC2)C(=O)N1 (stereo unspecified)
3. Cc1cc(C)cc(NC(=O)N2CCC(c3nc4ccccc4o3)CC2)c1
4. O=C(NCc1ccccn1)c1ccc2nc(-c3ccco3)c(-c3ccco3)nc2c1

1: 10.9% (inactive); 2: 16.2% (inactive); 3: 18.7% (inactive); 4: 3.28% (inactive)

* * *

Would you kindly list inhibition for each of these compounds?
experiment: inhibitors of TNFa-induced NFkB p65 translocation, primary screen, imaging, HUVEC, MLSMR starter and 10KST1 sets (AID 438); conditions: HUVEC TNFa-induced p65 nuclear translocation; at 2 µM, stronger effect = higher value, 0% TNFa-plus-vehicle, 100% no-TNFa wells;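 further: compound added about 3h40 before a 20 min TNFalpha stimulation; signal is the nuclear over cytoplasmic p65 intensity ratio per well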
Give bare numbers, in %.

Compound	inhibition [%]
CC(C)CCNC(=O)NC(=O)CSc1nnc(-c2ccccc2Br)o1	-16.6
CCCc1cc(=O)n2[nH]cnc2n1	11.4
CCNC(=O)CC1C(=O)N(c2ccccc2)C(=O)N1Cc1ccc(OC)cc1 (centres undefined)	5.9
O=C(CN1CCOCC1)N1CCN(C(=O)CN2CCOCC2)CC1	-51

Would you mind listing inhibition for each of the following compounds?
1. COc1ccc(Cc2nnc3n2N=C(c2cc4ccccc4o2)CS3)cc1OC
2. COC(=O)c1ccc2c(=O)n(Cc3ccco3)c(SCC(=O)Nc3ccc(C)c(Cl)c3)nc2c1
3. CCOc1ccccc1Nc1nc2ccccc2[nH]1
4. CC(C)(C)n1nnnc1C(c1cccc(C#N)c1)N1CCC(Cc2ccccc2)CC1 (centres undefined)

[-16.3, 5, 1.2, -13.9]

Give inhibition for each listed item.
1. COc1ccc2cc([C@H](C)C(=O)O)ccc2c1
2. Cc1onc(-c2c(Cl)cccc2Cl)c1C(=O)NCCCN1CCOCC1
3. O=C1CC(c2ccc(Cl)cc2)n2nc(N3C(=O)c4ccccc4C3=O)nc2N1 (centres undefined)
4. COC(=O)c1cc(Br)ccc1-c1ccc(/C=N/n2nnnc2N)o1
5. CC(C)(C)OC(=O)N1CC(O)CC1C(=O)OCC(=O)c1ccc(Cl)cc1 (centres undefined)
6. Cc1nc2ccc(NC(=O)N3CCOCC3)cc2s1
7. CCc1nnc(NC(=O)C2CCN(c3nccc(C)n3)CC2)s1

1: -0.4; 2: 3.6; 3: 11.4; 4: 1; 5: -7.4; 6: 0.5; 7: 0.5

Hi! Can you tell me inhibition for each of these compounds?
1. Cc1nc2nc(SCC(=O)NCc3ccco3)nn2c(C)c1Cc1ccccc1
2. C[C@H](NC(=O)Nc1ccccc1F)C(=O)O

1. 1.4
2. -8.5

* * *

test: loss of swimming-algae plug formation – whole organism, Chlamydomonas reinhardtii, WT vs cilia-less mutant, absorbance, 96-well, primary screen (AID 463189); conditions: Chlamydomonas reinhardtii gravitaxis, OD600 absorbance, 2 days; at 10 µM; stronger effect = higher value;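 further: 0% = wild type cc124 cells in DMSO and 100% = ciliumless bld1 mutant cells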
Quantity Name: inhibition (%)
One number for each entry, in %.

Compound	Numeric Value
Cn1cc(C(F)(F)F)nc1-c1ccc(OCC(O)CNCCOc2ccc(O)c(C(N)=O)c2)cc1 (configuration not stated)	-6.96

Could you tell me inhibition for each of these compounds? They are listed below.
1. Cn1c(=O)[nH]c2ncn(C)c2c1=O
2. O=C(O)c1cc(=O)c2ccccc2[nH]1
3. O=C(O)c1cc(=O)c2c(Cl)cc(Cl)cc2[nH]1
4. Cc1nc2c([nH]1)c(=O)n(C)c(=O)n2Cc1ccco1

-7.51
9.15
2.38
0.516

Below are 3 compounds. Give each one its inhibition.
1. CC1CCN=C(N)S1 (configuration not stated)
2. Cc1ccc(OCC(O)C(C)NC(C)C)c2c1CCC2 (configuration not stated)
3. CCC(=O)c1ccc2c(c1)N(CCCN(C)C)c1ccccc1S2

1: 0.783; 2: -3.42; 3: 46.1

Give inhibition for all compounds that follow.
1. O=C(O)CCC(=O)Nc1ccc(S(=O)(=O)Nc2nccs2)cc1
2. CCCCCCCCCCCCCCCCOCC(COCC(F)(F)F)OP(=O)(O)OCO (configuration not stated)

[5.01, 6.55]

Provide inhibition for all items below, preserving their order.
1. Nc1ncnc2c1ncn2[C@@H]1O[C@H](C(=O)NC2CC2)[C@H](O)C1O (some centres not stated)
2. O=C(O)c1ccc(COCC(F)(F)C(F)F)o1

7.98
25
